# tested-on: T1, recombinant human PD-1 dimer expressed with a C-terminal mouse IgG2a Fc tag (human)
# T1 construct: also called hPD-1-mFc
# test: competition ELISA: 1.5 nM hPD-1-mFc to coated hPD-L1-hFc; * below theoretical bottom 7.5E-10 M
quantity-measured: IC50 (pM)
Reply with just the number (in pM).

# binder, IC50 [pM]
measured = [
    ("H1M7799N (antibody, V domains shown, human variable regions, mouse IgG1 Fc) VH: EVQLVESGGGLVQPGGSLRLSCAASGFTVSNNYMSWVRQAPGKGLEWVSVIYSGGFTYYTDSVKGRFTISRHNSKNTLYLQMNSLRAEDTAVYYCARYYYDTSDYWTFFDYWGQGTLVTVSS VL: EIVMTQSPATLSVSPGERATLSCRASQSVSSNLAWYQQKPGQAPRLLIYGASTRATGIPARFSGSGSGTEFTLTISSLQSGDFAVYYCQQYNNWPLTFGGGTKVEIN", 220),
    ("H2aM7798N (antibody, V domains shown, human variable regions, mouse IgG2a Fc; also called H2M7798N) VH: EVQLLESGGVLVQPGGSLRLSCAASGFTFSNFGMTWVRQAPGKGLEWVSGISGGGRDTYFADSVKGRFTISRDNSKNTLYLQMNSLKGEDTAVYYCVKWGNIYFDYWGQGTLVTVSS VL: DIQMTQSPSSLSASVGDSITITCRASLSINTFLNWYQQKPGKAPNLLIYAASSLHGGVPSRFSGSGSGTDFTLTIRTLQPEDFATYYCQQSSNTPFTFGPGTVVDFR", 680),
    ("H2aM7780N (antibody, V domains shown, human variable regions, mouse IgG2a Fc; also called H2M7780N) VH: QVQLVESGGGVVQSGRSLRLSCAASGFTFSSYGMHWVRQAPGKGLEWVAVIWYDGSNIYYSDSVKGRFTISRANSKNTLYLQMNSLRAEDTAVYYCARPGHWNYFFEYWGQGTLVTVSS VL: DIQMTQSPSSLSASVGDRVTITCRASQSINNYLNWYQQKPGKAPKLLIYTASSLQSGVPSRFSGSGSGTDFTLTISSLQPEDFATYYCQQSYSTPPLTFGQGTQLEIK", 690),
]

Okay, now this binder:
Fill in: IC50 of H1M7800N (antibody, V domains shown, human variable regions, mouse IgG1 Fc) VH: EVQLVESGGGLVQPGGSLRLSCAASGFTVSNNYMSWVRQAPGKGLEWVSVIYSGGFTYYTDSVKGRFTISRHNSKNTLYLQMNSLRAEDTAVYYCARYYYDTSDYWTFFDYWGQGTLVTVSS VL: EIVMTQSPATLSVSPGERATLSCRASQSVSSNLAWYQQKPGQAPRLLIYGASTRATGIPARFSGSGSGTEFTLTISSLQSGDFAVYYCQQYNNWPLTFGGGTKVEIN is ___
600
